Overview of recorded CC50 at 48 h for various molecules
Assay: Cytotoxicity assay (CCK-8)
Conditions: human, MRC-5 cells (human fetal lung fibroblasts)
All answers are understood in µM, so give the number only.

Examples from the recorded data:
1. COc1ccc2c(ccn2C2CC(=O)N3C[C@@H]4CCCN5CCC[C@@H]([C@H]45)[C@H]3C2)c1 (stereo partly drawn) [3e, 13-(5-methoxy-1H-indol-1-yl)-matrine] ... 128
2. CNC1CC(=O)N2CC3CCCN4CCCC(C34)C2C1 (stereo not drawn) [2a, 13-methylamino-matrine] ... 609

Moving on to the next molecule.
Just so you know, measured CC50 at 48 h for O=C1CC(n2ccc3ccc([N+](=O)[O-])cc32)C[C@@H]2[C@H]3CCCN4CCC[C@@H](CN12)[C@@H]34 (stereo partly drawn) [3m, 13-(6-nitro-1H-indol-1-yl)-matrine] came out at 53.3

---

Test: Cytotoxicity assay (CCK-8)
Settings: human, MRC-5 cells (human fetal lung fibroblasts)
measured_attribute: CC50 at 48 h (µM)
All answers are understood in µM, so give the number only.

1. CN(C)C1CC(=O)N2CC3CCCN4CCCC(C34)C2C1 (stereo not shown) ... 624
2. O=C1CC(n2ccc3cc(Cl)ccc32)CC2C3CCCN4CCCC(CN12)C34 (stereo not shown) ... 26.7
3. O=C1CCC[C@@H]2[C@H]3CCCN4CCC[C@@H](CN12)[C@@H]34 ... 2470

Just so you know, measured CC50 at 48 h for Cc1ccc(=O)n(-c2ccccc2)c1 [Pirfenidone, reference compound] came out at 4160

---

Experiment: Cytotoxicity assay (CCK-8)
Settings: human, MRC-5 cells (human fetal lung fibroblasts)
measured_attribute: CC50 at 48 h (µM)
All answers are understood in µM, so give the number only.

Examples from the recorded data:
1) O=C1CC(n2ccc3ccncc32)C[C@@H]2[C@H]3CCCN4CCC[C@@H](CN12)[C@@H]34 (stereo partly shown) ... 84.2
2) Cc1cn(C2CC(=O)N3C[C@@H]4CCCN5CCC[C@@H]([C@H]45)[C@H]3C2)c2ccccc12 (stereo partly shown) ... 95.1
3) O=C1CC(n2ccc3ccc(F)cc32)C[C@@H]2[C@H]3CCCN4CCC[C@@H](CN12)[C@@H]34 (stereo partly shown) ... 78.1
4) O=C1CC(N2CCCC2)C[C@@H]2[C@H]3CCCN4CCC[C@@H](CN12)[C@@H]34 (stereo partly shown) ... 676
5) N#Cc1ccc2c(ccn2C2CC(=O)N3C[C@@H]4CCCN5CCC[C@@H]([C@H]45)[C@H]3C2)c1 (stereo partly shown) ... 154

Just so you know, measured CC50 at 48 h for O=C1CC(N2CCOCC2)C[C@@H]2[C@H]3CCCN4CCC[C@@H](CN12)[C@@H]34 (stereo partly shown) came out at 507

Just so you know, measured CC50 at 48 h for O=C1CC(n2ccc3cnccc32)CC2C3CCCN4CCCC(CN12)C34 (stereo not shown) came out at 114

Just so you know, measured CC50 at 48 h for O=C1CC(n2ccc3cc(Br)ccc32)C[C@@H]2[C@H]3CCCN4CCC[C@@H](CN12)[C@@H]34 (stereo partly shown) came out at 18.2

Just so you know, measured CC50 at 48 h for O=C1CC(n2ccc3c([N+](=O)[O-])cccc32)C[C@@H]2[C@H]3CCCN4CCC[C@@H](CN12)[C@@H]34 (stereo partly shown) came out at 32.8

Just so you know, measured CC50 at 48 h for O=C1CC(n2ccc3ccc(Cl)cc32)C[C@@H]2[C@H]3CCCN4CCC[C@@H](CN12)[C@@H]34 (stereo partly shown) came out at 45.8

Just so you know, measured CC50 at 48 h for O=C1CC(n2ccc3ccccc32)C[C@@H]2[C@H]3CCCN4CCC[C@@H](CN12)[C@@H]34 (stereo partly shown) came out at 107

Just so you know, measured CC50 at 48 h for O=C1CC(n2ccc3cc([N+](=O)[O-])ccc32)C[C@@H]2[C@H]3CCCN4CCC[C@@H](CN12)[C@@H]34 (stereo partly shown) came out at 65.4

Just so you know, measured CC50 at 48 h for COc1cccc2c1ccn2C1CC(=O)N2C[C@@H]3CCCN4CCC[C@@H]([C@H]34)[C@H]2C1 (stereo partly shown) came out at 56.7

---

Assay: in vitro
Conditions: human
measured_attribute: CC50 at 48 h

Just so you know, measured CC50 at 48 h for O=C1C=CC[C@@H]2[C@H]3CCCN4CCC[C@@H](CN12)[C@@H]34 [Sophocarpine, reference compound] came out at 3.16 mM
